experimentalSystem: T1, recombinant LILRA3 (human, UniProt Q8N6C8 24-439)
T1 construct: whole entry named; also called LILRA3 ECD; LILA3
T1 sequence (Q8N6C8 24-439 limits assumed): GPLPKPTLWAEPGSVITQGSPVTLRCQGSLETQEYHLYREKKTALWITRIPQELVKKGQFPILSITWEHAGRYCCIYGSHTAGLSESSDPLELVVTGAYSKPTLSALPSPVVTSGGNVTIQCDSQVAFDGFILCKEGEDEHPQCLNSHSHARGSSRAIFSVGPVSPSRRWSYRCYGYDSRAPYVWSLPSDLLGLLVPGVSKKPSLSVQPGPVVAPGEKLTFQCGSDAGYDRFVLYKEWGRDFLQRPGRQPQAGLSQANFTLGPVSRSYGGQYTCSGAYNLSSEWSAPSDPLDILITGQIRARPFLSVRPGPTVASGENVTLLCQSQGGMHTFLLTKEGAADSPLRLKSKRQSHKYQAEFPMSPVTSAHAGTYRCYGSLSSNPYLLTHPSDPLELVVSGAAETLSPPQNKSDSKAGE
assay: BLI, IgG on AHC sensor, ECD in solution
pKd: −log10 of the molar value.
measuredQuantity: pKd

- A-011 (antibody, V domains shown, tested as IgG) VH: QVQLVQSGAEVKKPGSSVKVSCKASGGSFSHSAFSWVRQAPGQGLEWMGSIIPAFYTANYAQKFQGRVTITADESTSTAYMELSSLRSEDTAVYYCAKDLGTYSSGWPYYYGMDVWGQGTTVTVSS VL: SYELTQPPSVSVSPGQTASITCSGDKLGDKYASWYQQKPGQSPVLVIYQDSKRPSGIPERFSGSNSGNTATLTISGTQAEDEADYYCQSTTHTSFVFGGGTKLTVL: 6.86
- A-006 (antibody, V domains shown, tested as IgG) VH: QVQLVQSGAEVKKPGSSVKVSCKASGGTFSQYAFSWVRQAPGQGLEWMGSIIPGFTTSNYAHKFQGRVTITADESTSTAYMELSSLRSEDTAVYYCAKDLGTYSSGWPYYYGMDVWGQGTTVTVSS VL: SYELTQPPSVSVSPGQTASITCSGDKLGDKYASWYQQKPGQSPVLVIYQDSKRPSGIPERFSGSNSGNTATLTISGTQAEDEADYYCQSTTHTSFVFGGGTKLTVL: 6.74
- A-030 (antibody, V domains shown, tested as IgG) VH: QVQLVQSGAEVKKPGSSVKVSCKASGGSFQSYAFSWVRQAPGQGLEWMGGIVPIYYTATYAQKFQGRVTITADESTSTAYMELSSLRSEDTAVYYCAKGPPVGSSSWYTDWYFDLWGRGTLVTVSS VL: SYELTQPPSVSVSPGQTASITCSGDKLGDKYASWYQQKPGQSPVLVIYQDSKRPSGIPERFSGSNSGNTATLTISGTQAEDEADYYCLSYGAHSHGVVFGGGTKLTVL: 6.91
